molecular target: hERG channel (Homo sapiens, UniProt Q12809); construct: host or cells: HEK293; assay: Inhibition of the hERG channel (manual patch clamp assay); assay type: cell-based; conditions: HEK293 cells stably transfected with hERG cDNA, at 10 uM, whole-cell patch clamp, tail current
Sequence (Q12809 whole entry): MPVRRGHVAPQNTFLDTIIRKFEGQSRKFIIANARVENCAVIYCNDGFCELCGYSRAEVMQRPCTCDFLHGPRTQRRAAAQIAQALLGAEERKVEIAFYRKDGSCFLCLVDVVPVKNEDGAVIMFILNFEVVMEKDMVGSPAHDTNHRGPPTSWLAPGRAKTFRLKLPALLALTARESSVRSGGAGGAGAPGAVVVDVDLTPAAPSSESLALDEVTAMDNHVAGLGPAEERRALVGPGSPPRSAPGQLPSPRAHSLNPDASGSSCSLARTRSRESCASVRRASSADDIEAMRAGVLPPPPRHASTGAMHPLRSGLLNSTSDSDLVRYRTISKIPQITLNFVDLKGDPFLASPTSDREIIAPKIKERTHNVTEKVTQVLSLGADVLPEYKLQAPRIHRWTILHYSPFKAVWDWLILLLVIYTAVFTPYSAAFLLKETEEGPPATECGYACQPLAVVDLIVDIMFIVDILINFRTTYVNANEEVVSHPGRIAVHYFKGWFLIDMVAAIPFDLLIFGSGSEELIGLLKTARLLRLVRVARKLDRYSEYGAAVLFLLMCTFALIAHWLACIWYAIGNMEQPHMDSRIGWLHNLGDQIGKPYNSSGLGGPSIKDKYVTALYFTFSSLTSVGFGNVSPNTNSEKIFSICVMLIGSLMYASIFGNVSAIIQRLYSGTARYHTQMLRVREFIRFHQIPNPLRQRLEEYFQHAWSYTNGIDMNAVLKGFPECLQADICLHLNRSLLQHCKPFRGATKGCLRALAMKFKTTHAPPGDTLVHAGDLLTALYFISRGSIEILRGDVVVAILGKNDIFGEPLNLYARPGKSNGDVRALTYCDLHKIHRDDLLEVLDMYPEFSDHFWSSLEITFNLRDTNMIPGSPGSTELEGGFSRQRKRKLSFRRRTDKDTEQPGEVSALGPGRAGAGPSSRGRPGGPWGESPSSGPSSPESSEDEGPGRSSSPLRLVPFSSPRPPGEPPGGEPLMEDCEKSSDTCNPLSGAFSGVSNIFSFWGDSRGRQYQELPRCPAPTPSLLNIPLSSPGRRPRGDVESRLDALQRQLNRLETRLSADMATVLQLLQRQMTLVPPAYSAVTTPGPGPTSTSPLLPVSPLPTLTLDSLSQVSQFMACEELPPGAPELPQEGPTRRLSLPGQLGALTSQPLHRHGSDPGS
Assign inhibition at 9 min, 10 µM to each entry below.
Give the value, in units of %, as a plain number.

*Q* Please tell me: inhibition at 9 min, 10 µM of `Cc1c[nH]c2c(Nc3nc(N[C@@H]4CCCC[C@@H]4N)nnc3C(N)=O)cccc12` , system hERG channel (Homo sapiens, UniProt Q12809)?
*A* 37

*Q* Please tell me: inhibition at 9 min, 10 µM of `NC(=O)c1nnc(N[C@@H]2CCCC[C@@H]2N)nc1Nc1cccc2cc[nH]c12` , system hERG channel (Homo sapiens, UniProt Q12809)?
*A* -5
